Tested on: U2OS
Assay: Incucyte cell viability with U2OS; also: unitless GR value; below 1 slowed growth and below 0 cell loss
Type: toxicity, cell-based
Conditions: human, 24 h, 10 µM, compound concentration 10 uM, replicate number 1
Rule: Growth Rate below 0.8 gives Satisfied, anything at or above gives Not satisfied.

[[record]]
molecule = "Cc1ccc2c(NS(=O)(=O)c3ccccc3Cl)cccc2c1Oc1ncccc1-c1ccnc(N[C@H]2CCCNC2)n1.Cl"
cat = "Satisfied"

[[record]]
molecule = "NC(=O)c1cc2c(-c3ccc(C(=O)NCc4ccnc(Cl)c4)s3)cccc2s1"
cat = "Satisfied"

[[record]]
molecule = "C=CC(=O)Nc1cc(-c2nn(C3CCC(N4CCN(C(C)=O)CC4)CC3)c3ncnc(N)c23)ccc1Oc1ccccc1 (stereo not drawn)"
cat = "Satisfied"

[[record]]
molecule = "CC(F)(F)CN1C(=O)c2[nH]nc(-c3cccc4[nH]c(=O)oc34)c2C1c1ccc(Oc2cc(C(F)(F)F)cc(C(F)(F)F)c2)cc1 (stereo not drawn)"
cat = "Not satisfied"

[[record]]
molecule = "CCN1CCN(Cc2ccc(NC(=O)c3ccc(C)c(Oc4ccnc5[nH]ccc45)c3)cc2C(F)(F)F)CC1.Cl.Cl.Cl.O"
cat = "Satisfied"

[[record]]
molecule = "COc1cc2ncnc(Nc3ccc(F)c(Cl)c3)c2cc1OCCN(C)C[C@H](C)O"
cat = "Not satisfied"


----------
System: U2OS
Test: Incucyte cell viability with U2OS; also: unitless GR value; below 1 slowed growth and below 0 cell loss
Type: toxicity, cell-based
Conditions: human, 24 h, 10 µM, compound concentration 10 uM, replicate number 2
So basically: Growth Rate at 0.7 or higher? That is t. Lower than 0.7? That is f.

[[record]]
compound = "CC/C(=C(\\c1ccccc1)c1ccc(OCCN(C)C)cc1)c1ccccc1.O=C(O)CC(O)(CC(=O)O)C(=O)O [TAMOXIFEN CITRATE]"
cat = "t"

[[record]]
compound = "COc1ccc(S(=O)(=O)N2CCOCC2)cc1Nc1ccc2c(n1)N(C1CCOCC1)[C@H](C)C(=O)N2C"
cat = "t"

[[record]]
compound = "Cc1c(-c2c(F)cc(C(N)=O)c3[nH]c4c(c23)CC[C@H](C(C)(C)O)C4)cccc1-n1c(=O)c2cccc(F)c2n(C)c1=O"
cat = "t"

[[record]]
compound = "O=C(Nc1c[nH]nc1-c1nc2cc(CN3CCOCC3)ccc2[nH]1)NC1CC1"
cat = "f"

[[record]]
compound = "CCCCNc1ncc2c(-c3ccc(CN4CCN(C)CC4)cc3)cn([C@H]3CC[C@H](O)CC3)c2n1"
cat = "f"

[[record]]
compound = "Cc1cc(OC2CCS(=O)(=O)CC2)cc(C)c1-c1cccc(COc2ccc(CCC(=O)O)c(F)c2)c1"
cat = "t"

[[record]]
compound = "Cc1ccc(-c2c(C(=O)CF)n(CCCO)c3ncnc(N)c23)cc1"
cat = "t"

[[record]]
compound = "O=C1COc2cc(C(=O)N(Cc3ccc(C(=O)Nc4ccncn4)cc3)C3CC3)ccc2N1"
cat = "t"

[[record]]
compound = "CC(Oc1cc(-c2cnn(C3CCNCC3)c2)cnc1N)c1c(Cl)ccc(F)c1Cl (stereo not given)"
cat = "f"

[[record]]
compound = "NC(=O)c1ccc(-c2nc(-c3ccc4c(c3)OCCO4)c(-c3ccccn3)[nH]2)cc1"
cat = "t"

[[record]]
compound = "CN(C)[C@H]1CC[C@H](Nc2ncc3ncnc(Nc4ccc(F)c(Cl)c4)c3n2)CC1"
cat = "f"

[[record]]
compound = "O=C(N[C@H]1CN2CCC1CC2)c1ccc(Cl)cc1"
cat = "t"

[[record]]
compound = "Cc1cn([C@@H](C)CC#N)c(=O)c2cc(Cn3nc(C(F)F)cc3Cl)nn12"
cat = "t"

[[record]]
compound = "C[C@H]1CN(C2COC2)CCN1c1ccc(Nc2cc(-c3ccnc(N4CCn5c(cc6c5CC(C)(C)C6)C4=O)c3CO)cn(C)c2=O)nc1"
cat = "t"

[[record]]
compound = "COc1cc(-c2cncc(-c3ccc(N4CCN(C(C)C)CC4)cc3)c2C)cc(F)c1C(=O)N1CCCC1"
cat = "t"

[[record]]
compound = "CN1[C@@H](CC(=O)c2ccccc2)CCC[C@H]1C[C@H](O)c1ccccc1.Cl [LOBELINE HYDROCHLORIDE]"
cat = "t"

[[record]]
compound = "CC1(C)CC(=O)c2c(SCCO)sc(-c3nccs3)c2C1"
cat = "t"

[[record]]
compound = "CCN1C(=O)N(c2c(F)c(OC)cc(OC)c2F)Cc2cnc3[nH]c(CN4CCOCC4)cc3c21"
cat = "f"

[[record]]
compound = "C=CC(=O)Nc1cccc(C)c1Nc1ncc2cc(-c3c(Cl)c(OC)cc(OC)c3Cl)ccc2n1"
cat = "f"

[[record]]
compound = "CCC(=O)Nc1cc(Nc2cc(NC3CC3)n3ncc(C#N)c3n2)ccc1C"
cat = "f"

[[record]]
compound = "NC1(c2ccc(-c3nc4c(O)ccnn4c3-c3ccccc3)cc2)CCC1"
cat = "t"

[[record]]
compound = "CCC(F)(F)c1cc(N2CCC(S(C)(=O)=O)CC2)nc2sc(C(N)=O)c(N)c12"
cat = "t"

[[record]]
compound = "C[C@H](CCC(=O)O)[C@H]1CC[C@H]2[C@@H]3[C@H](O)C[C@@H]4C[C@H](O)CC[C@]4(C)[C@H]3C[C@H](O)[C@]12C"
cat = "t"

[[record]]
compound = "CCOC(=O)C1=C[C@]2(CC)CCCN3CCc4c(n1c1ccccc41)[C@@H]32"
cat = "t"

[[record]]
compound = "O=S1(=O)NCN(C2CC2)c2ccc(F)cc21"
cat = "t"

[[record]]
compound = "CC(=O)N(CCN(C)C)c1ccc(N/C(=C2\\C(=O)Nc3cc(Cl)ccc32)c2ccccc2)cn1"
cat = "f"

[[record]]
compound = "COCCNC1CCC(Nc2cc(-c3csc(NCC4(C#N)CCOCC4)n3)c(Cl)cn2)CC1 (stereo not given)"
cat = "f"

[[record]]
compound = "CN(C)c1cc2c(Nc3ccc4c(cnn4Cc4ccccc4)c3)ncnc2cn1 [GW282974X]"
cat = "f"

[[record]]
compound = "CO[C@H](C)CN1CC[C@]2(C)c3cccc(O)c3C[C@H]1C2(C)C.Cl"
cat = "t"

[[record]]
compound = "CC(C)(C)c1cc(C(C)(C)C)c(NC(=O)c2c[nH]c3ccccc3c2=O)cc1O"
cat = "t"

[[record]]
compound = "O=C(Nc1cccc(C(F)(F)F)c1)c1cc(Cl)ccc1O"
cat = "f"


----------
System: U2OS
Experiment: Incucyte cell viability with U2OS; also: unitless GR value; below 1 slowed growth and below 0 cell loss
Type: toxicity, cell-based
Conditions: human, 24 h, 10 µM, compound concentration 10 uM, replicate number 2
Recorded Growth Rate by entry
property.name: Growth Rate

[[record]]
smiles_record = "CC(C)(C)NC(=O)c1cncn1C1CCN(c2ccc(-c3nnc(C(F)(F)F)o3)cn2)CC1"
property_name = "Growth Rate"
reported = 0.6

[[record]]
smiles_record = "CCN1C(=O)c2cc(C)ccc2N(C)c2ncccc21"
property_name = "Growth Rate"
reported = 0.8

[[record]]
smiles_record = "COc1ccc(C(=O)N[C@H](C)c2cccc(C(=O)Nc3nc4c(s3)CN(C)CC4)c2)cc1C.O=C(O)C(F)(F)F"
property_name = "Growth Rate"
reported = 0.88

[[record]]
smiles_record = "CCC(=O)N[C@H]1CC[C@@H](C(=O)N(C)c2ccc(-c3nc4ccccc4o3)cc2)C1"
property_name = "Growth Rate"
reported = 0.96

[[record]]
smiles_record = "O=C(O)c1ccc(-c2c[nH]c3ncc(-c4ccccc4)cc23)cc1C1CCCC1"
property_name = "Growth Rate"
reported = 0.96

[[record]]
smiles_record = "CC(C)(C)c1cnc(CSc2cnc(NC(=O)C3CCNCC3)s2)o1"
property_name = "Growth Rate"
reported = -0.1

[[record]]
smiles_record = "CN1CCN([C@H]2CC[C@@H](n3cc(-c4ccc(Oc5ccccc5)cc4)c4c(N)ncnc43)CC2)CC1"
property_name = "Growth Rate"
reported = -0.03

[[record]]
smiles_record = "CCOC(=O)c1ccc(CN(Cc2ccc(-c3cccc(S(C)(=O)=O)c3)cc2)S(=O)(=O)c2c(C)cc(C)cc2C)o1"
property_name = "Growth Rate"
reported = 0.89

